test: total protein half-life in vivo (active degradation + dilution); higher = more stable protein; conditions: wild type E. coli NCM3722; growth: C-lim chemostat; doubling time 6 h
Measured total protein half-life in vivo, listed per entry for reference.

chain: MDTSLAEEVQQTMATLAPNRFFFMSPYRSFTTSGCFARFDEPAVNGDSPDSPFQQKLAALFADAKAQGIKNPVMVGAIPFDPRQPSSLYIPESWQSFSRQEKQASARRFTRSQSLNVVERQAIPEQTTFEQMVARAAALTATPQVDKVVLSRLIDITTDAAIDSGVLLERLIAQNPVSYNFHVPLADGGVLLGASPELLLRKDGERFSSIPLAGSARRQPDEVLDREAGNRLLASEKDRHEHELVTQAMKEVLRERSSELHVPSSPQLITTPTLWHLATPFEGKANSQENALTLACLLHPTPALSGFPHQAATQVIAELEPFDRELFGGIVGWCDSEGNGEWVVTIRCAKLRENQVRLFAGAGIVPASSPLGEWRETGVKLSTMLNVFGLH [P0AEJ2]
unitOfMeasure: h
total protein half-life in vivo: 2.54
//
chain: MKSVLKVSLAALTLAFAVSSHAADKKLVVATDTAFVPFEFKQGDKYVGFDVDLWAAIAKELKLDYELKPMDFSGIIPALQTKNVDLALAGITITDERKKAIDFSDGYYKSGLLVMVKANNNDVKSVKDLDGKVVAVKSGTGSVDYAKANIKTKDLRQFPNIDNAYMELGTNRADAVLHDTPNILYFIKTAGNGQFKAVGDSLEAQQYGIAFPKGSDELRDKVNGALKTLRENGTYNEIYKKWFGTEPK [P0AEQ3]
unitOfMeasure: h
total protein half-life in vivo: 6.48
//
chain: MILIIYAHPYPHHSHANKRMLEQARTLEGVEIRSLYQLYPDFNIDIAAEQEALSRADLIVWQHPMQWYSIPPLLKLWIDKVFSHGWAYGHGGTALHGKHLLWAVTTGGGESHFEIGAHPGFDVLSQPLQATAIYCGLNWLPPFAMHCTFICDDETLEGQARHYKQRLLEWQEAHHG [P0A754]
unitOfMeasure: h
total protein half-life in vivo: 4.93
